Assay: In vivo pharmacokinetics and brain exposure
Conditions: mouse, brain; mice, 10 mg/kg IV, 24 hr; read-out: Amount of compound per mg of wet brain tissue
Square brackets hold non-standard residues; d marks the D form. Peptide text beside a SMILES is read from it. * marks the point of attachment. Cyclohexanoyl(1S,3S-3-NH2) = N[C@H]1CCC[C@H](C(=O)*)C1; Trp(5-OH) = N[C@@H](Cc1c[nH]c2ccc(O)cc12)C(=O)O; NH(4-morpholinophenyl) = c1cc(N2CCOCC2)ccc1N*; Bip = N[C@@H](Cc1ccc(-c2ccccc2)cc1)C(=O)O; hArg = N=C(N)NCCCC[C@H](N)C(=O)O
readout.kind: tissue level at time at 24 h (ng/g)
Please state the figure in ng/g; there is no need to write the unit.

[Q] Request the reported tissue level at time at 24 h associated with N=C(N)NCCCC[C@H](NC(=O)[C@H](Cc1ccc(-c2ccccc2)cc1)NC(=O)[C@H](Cc1c[nH]c2ccc(O)cc12)NC(=O)[C@H]1CCC[C@H](N)C1)C(=O)NCC(=O)Nc1ccc(N2CCOCC2)cc1 [Compound 8] ({Cyclohexanoyl(1S,3S-3-NH2)}-[Trp(5-OH)][Bip][hArg]G-{NH(4-morpholinophenyl)})
[A] 1360
